Molecular target: CK1δ (Homo sapiens)
Construct: Catalytic domain of CK1δ was expressed as N-terminal GST-fusion protein in E. coli; GST (N)
Sequence (P48730 9-277 limits assumed): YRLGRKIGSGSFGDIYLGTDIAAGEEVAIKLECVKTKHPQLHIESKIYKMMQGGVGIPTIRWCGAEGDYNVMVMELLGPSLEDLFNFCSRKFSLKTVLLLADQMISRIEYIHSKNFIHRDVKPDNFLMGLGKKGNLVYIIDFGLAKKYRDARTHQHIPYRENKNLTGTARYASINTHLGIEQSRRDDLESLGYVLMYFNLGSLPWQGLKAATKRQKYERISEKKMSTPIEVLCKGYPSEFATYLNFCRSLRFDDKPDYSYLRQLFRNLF
Test: In vitro kinase assay (QuickScout mobility shift assay), CK1δ
result type: IC50 (nM)

>>> print(df.to_string())
                                   compound  result_type  value_measured
0  COc1cc(OC)c(C=C2C(O)=Nc3ccccc32)c(OC)c1 [IC261]         IC50             600

* * *

Biological target: human CK1γ3 (Homo sapiens)
Sequence (Q9Y6M4 whole entry): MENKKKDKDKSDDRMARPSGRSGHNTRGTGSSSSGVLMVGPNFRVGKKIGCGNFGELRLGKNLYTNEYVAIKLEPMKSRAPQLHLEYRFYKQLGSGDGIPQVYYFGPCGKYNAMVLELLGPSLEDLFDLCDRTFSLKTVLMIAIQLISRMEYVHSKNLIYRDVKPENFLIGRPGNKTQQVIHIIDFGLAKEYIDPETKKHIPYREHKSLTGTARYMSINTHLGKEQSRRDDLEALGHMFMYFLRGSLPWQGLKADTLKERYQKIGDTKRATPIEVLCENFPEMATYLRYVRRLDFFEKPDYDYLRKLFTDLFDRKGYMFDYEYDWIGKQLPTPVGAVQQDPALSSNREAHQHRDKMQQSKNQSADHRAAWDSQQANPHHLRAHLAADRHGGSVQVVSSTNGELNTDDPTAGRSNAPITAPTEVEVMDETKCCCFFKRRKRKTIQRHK
pIC50: −log10 of the molar value.
result type: pIC50

>>> print(df.to_string())
                                   molecule  value_measured
0  COc1cc(OC)c(C=C2C(O)=Nc3ccccc32)c(OC)c1 [IC261]          < 4.52

* * *

Molecular target: human CK1γ2 (Homo sapiens)
Sequence (P78368 whole entry): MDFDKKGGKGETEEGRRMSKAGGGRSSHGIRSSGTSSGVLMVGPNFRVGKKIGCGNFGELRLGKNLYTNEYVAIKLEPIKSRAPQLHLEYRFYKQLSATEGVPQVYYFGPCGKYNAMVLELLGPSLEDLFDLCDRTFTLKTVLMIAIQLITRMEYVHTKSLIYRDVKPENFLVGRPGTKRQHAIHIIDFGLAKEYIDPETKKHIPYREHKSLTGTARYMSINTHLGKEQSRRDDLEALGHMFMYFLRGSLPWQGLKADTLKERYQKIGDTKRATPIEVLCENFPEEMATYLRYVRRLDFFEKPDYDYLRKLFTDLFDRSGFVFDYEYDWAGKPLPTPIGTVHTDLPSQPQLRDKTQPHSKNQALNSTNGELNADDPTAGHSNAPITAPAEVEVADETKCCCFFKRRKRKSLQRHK
result type: IC50

In [3]: df
Out[3]:
                                   molecule  value_measured
0  COc1cc(OC)c(C=C2C(O)=Nc3ccccc32)c(OC)c1 [IC261]         > 30 µM

* * *

Biological target: human CK1ϵ (Homo sapiens)
Construct: catalytic domain of human CK1ϵ were expressed as N-terminal GST-fusion protein; GST (N)
Sequence (P49674 9-277 limits assumed): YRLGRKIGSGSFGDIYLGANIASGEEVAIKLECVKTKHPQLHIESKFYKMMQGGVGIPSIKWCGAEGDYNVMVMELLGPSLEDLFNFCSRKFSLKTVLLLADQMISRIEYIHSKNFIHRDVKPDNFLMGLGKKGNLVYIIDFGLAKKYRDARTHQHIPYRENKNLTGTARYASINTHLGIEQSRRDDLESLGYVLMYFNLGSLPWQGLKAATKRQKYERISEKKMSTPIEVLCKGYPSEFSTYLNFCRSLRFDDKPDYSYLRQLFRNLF
Assay: In vitro kinase assay (QuickScout mobility shift assay), CK1ϵ
Conditions: substrate peptide CKtide; ATP at Km 16 μM; average of duplicated experiments
pIC50: −log10 of the molar value.
result type: pIC50

                                   compound  result_type  value_measured
0  COc1cc(OC)c(C=C2C(O)=Nc3ccccc32)c(OC)c1 [IC261]        pIC50            6.07

* * *

Target: human CK1α (Homo sapiens)
Construct: Full-length human CK1α, CK1γ1, CK1γ2, CK1γ3; GST (N); purchased Carna Biosciences, Inc; host or cells: baculovirus system (insect cells)
Sequence (P48729 whole entry): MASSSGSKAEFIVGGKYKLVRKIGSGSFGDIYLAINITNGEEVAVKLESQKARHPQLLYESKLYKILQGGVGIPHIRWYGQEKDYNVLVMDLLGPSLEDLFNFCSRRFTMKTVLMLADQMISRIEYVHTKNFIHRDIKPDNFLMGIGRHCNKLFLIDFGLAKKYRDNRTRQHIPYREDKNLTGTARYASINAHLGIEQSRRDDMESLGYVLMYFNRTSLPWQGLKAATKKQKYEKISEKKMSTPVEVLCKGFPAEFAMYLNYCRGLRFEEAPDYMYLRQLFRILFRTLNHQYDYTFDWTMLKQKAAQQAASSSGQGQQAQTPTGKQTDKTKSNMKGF
Assay: In vitro kinase assay (QuickScout mobility shift assay), CK1α
Type: biochemical
result type: IC50

                                 structure  value_measured
0  COc1cc(OC)c(C=C2C(O)=Nc3ccccc32)c(OC)c1          190 nM
